Each entry below carries its reported pre-steady-state target cleavage rate.
System: EfPiwi piRISC loaded with piRNA #1 (26 nt)
Assay: pre-steady-state target cleavage rate (min^-1); auxiliary factor: 500 nM Ephydatia muelleri Gtsf1; guide: piRNA #1 5'p-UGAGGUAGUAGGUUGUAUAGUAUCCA; higher = faster piRNA-guided slicing of the target

Take a look at these entries with their results.
[[record]]
residue_sequence = "GGAGAGGAUACUAUACAGACCUACUACCUCA"
result = 0.00626

[[record]]
residue_sequence = "GGAGACGAUACUAUACUACCUACUUCCUCA"
result = 0.00224


Read the next record carefully.
stdin: Reported pre-steady-state target cleavage rate, sequence GGAGAGGAUACUUAUCAACCUACUACCUCA : ____
stdout: 0.00553

---

Tested on: MILI (PIWIL2) piRISC loaded with L1MC piRNA (26 nt);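 note: 1 nM active piRISC with 0.1 nM target library at 33 °C single turnover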
Test: pre-steady-state target cleavage rate (min^-1); guide: L1MC piRNA 5'p-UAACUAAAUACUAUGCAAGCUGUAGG; higher = faster piRNA-guided slicing of the target
Settings: auxiliary factor: 500 nM mouse GTSF1
param class (str): category from pre-steady-state target cleavage rate; see ranges class A: < 0.03; class B: ≥ 0.03 and < 0.2; class C: ≥ 0.2

Solved entries:
[[record]]
residue_sequence = "UCCUGGAACACCUUGCAUACUAUUUAGUUA"
classification = "class B"

[[record]]
residue_sequence = "UCCUGGUCACAGCUUGCAUAGUAUUUAGUUA"
classification = "class C"

[[record]]
residue_sequence = "UCCUCCUACACGAUGCAUAGUAUUUUCAAA"
classification = "class B"

[[record]]
residue_sequence = "UCCUGGAUCAGCUUGCAUAGUAAAUAGAAA"
classification = "class A"

[[record]]
residue_sequence = "UCCUGGAUGUCCAUGCAUAGUAUUUAGAUA"
classification = "class A"

[[record]]
residue_sequence = "UCCUCCUACAGCUUCCAUAGUAUUUUGUUA"
classification = "class A"

[[record]]
residue_sequence = "UCCUCCUACAGCUUGCAUAGUUUAUAGUUA"
classification = "class B"

[[record]]
residue_sequence = "UCCUGGAACAGCUUGGUUAGUAUUUAGUUA"
classification = "class C"

[[record]]
residue_sequence = "UCCUGGAUCAGCUUGCAUAGUAAUUAGUUA"
classification = "class C"

[[record]]
residue_sequence = "UCCUGGUUGUGCUUGCAUAGUAUUUUCAAA"
classification = "class A"


stdin: Hello team, could you let me know which band the following sequence falls into: UCCUGGAUGUCGAUGCAUAGCAUUUAGUUA
stdout: class A

stdin: Hello team, could you let me know which band the following sequence falls into: UCCUGGAUCAGCAUGCAUAGUAUUUAGUUA
stdout: class C

stdin: Hello team, could you let me know which band the following sequence falls into: UCCUGGAUGUCCAUGCAUAGUAUUUUGUUA
stdout: class A

stdin: Hello team, could you let me know which band the following sequence falls into: UCCUGGAACAGGUUGCAUAGUUUUUAGUUA
stdout: class B

---

Test system: EfPiwi piRISC loaded with L1MC piRNA (26 nt)
Assay: pre-steady-state target cleavage rate (min^-1); auxiliary factor: 500 nM Ephydatia muelleri Gtsf1; guide: L1MC piRNA 5'p-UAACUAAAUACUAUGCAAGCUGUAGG; MIWI and MILI are mouse PIWI proteins and EfPiwi is from a freshwater sponge; tags in brackets are library labels; higher = faster piRNA-guided slicing of the target
Reported endpoint: pre-steady-state target cleavage rate
Write the number on its own, no unit after it.

Take a look at these entries with their results.
[[record]]
residue_sequence = "UCCUGGUACAGCUUGCAUAGUAUUUUGUUA"
reported_endpoint = "pre-steady-state target cleavage rate"
quantitative_readout = 0.00618

[[record]]
residue_sequence = "UCCUCCUACAGCUUGCUAAGUAUUUAGUUA"
reported_endpoint = "pre-steady-state target cleavage rate"
quantitative_readout = 0.00593

[[record]]
residue_sequence = "UCCUGCUACAGCUAGCAUAGUAAUUAGUUA"
reported_endpoint = "pre-steady-state target cleavage rate"
quantitative_readout = 0.00598


Read the next record carefully.
stdin: Reported pre-steady-state target cleavage rate, sequence UCCUGGAUGUCCUUGCAUAGUAUUUAGUUU [g2:g19:cont:t1U] : ____
stdout: 0.00601
